Source: ChEMBL document CHEMBL1121484

SUBJECT OF TEST: Prothrombin (Bos taurus)
RUN DESCRIPTION: Bovine thrombin concentration at which clotting time was prolonged 2x over the control.
CONDITION DESCRIPTION: read-out: I50
Entries and their IC50 values follow.
Only the number, expressed in µM, is required.

N=C(N)NCCCC(NS(=O)(=O)c1cccc2ccccc12)C(=O)N1CCCCCC1 (centres undefined)    10
CC1CCN(C(=O)C(CCCN=C(N)N)NS(=O)(=O)c2cccc3c(N(C)C)cccc23)CC1 (centres undefined)    0.3

Entry under test: N=C(N)NCCCC(NS(=O)(=O)c1cccc2ccccc12)C(=O)N1CCC(c2ccccc2)CC1 (centres undefined) . Its IC50 was 100

Field IC50 (entry CCOc1cccc2c(S(=O)(=O)NC(CCCNC(=N)N)C(=O)N3CCC(CC)CC3)cccc12 (centres undefined) ) reads 0.1

====

SUBJECT OF TEST: Prothrombin (Bos taurus, UniProt P00735)
RUN DESCRIPTION: Bovine thrombin concentration at which clotting time was prolonged 2x over the control.
CONDITION DESCRIPTION: read-out: I50
# IC50 binned as low (below 700 nM), medium (700 nM to below 4000 nM), high (4000 nM or more)

A selection of reference data follows.
CCCCN(CCCC)C(=O)C(CCCNC(=N)N)NS(=O)(=O)c1cccc2c(N(C)C)cccc12 (stereo not drawn)    high
CN(C)c1cccc2c(S(=O)(=O)NC(CCCNC(=N)N)C(=O)N3Cc4ccccc4C3)cccc12 (stereo not drawn)    low
CCCC1CCN(C(=O)C(CCCN=C(N)N)NS(=O)(=O)c2cccc3c(N(C)C)cccc23)CC1 (stereo not drawn)    medium
CCC1CCN(C(=O)C(CCCN=C(N)N)NS(=O)(=O)c2ccc(OC)c3ccccc23)CC1 (stereo not drawn)    medium
COc1cccc2c(S(=O)(=O)NC(CCCN=C(N)N)C(=O)N3CCC(C)CC3)cccc12 (stereo not drawn)    low

Bin this entry: CCC1CCN(C(=O)C(CCCN=C(N)N)NS(=O)(=O)c2ccc3cc(C)ccc3c2)CC1 (stereo not drawn)
low

Tag the class for CCC1CCN(C(=O)C(CCCN=C(N)N)NS(=O)(=O)c2cccc3c([N+](=O)[O-])cccc23)CC1 (stereo not drawn)
medium

Which class is correct for the following molecule? CN(C)c1cccc2c(S(=O)(=O)NC(CCCN=C(N)N)C(=O)NCc3ccccc3)cccc12 (stereo not drawn)
high

# classify by IC50 band: COCCCNC(=O)C(CCCNC(=N)N)NS(=O)(=O)c1cccc2c(N(C)C)cccc12 (stereo not drawn)
high

Please report the category associated with CC1CCN(C(=O)C(CCCN=C(N)N)NS(=O)(=O)c2ccc3ccccc3c2)CC1 (stereo not drawn) , nothing else.
high

Lab log: CN(C)c1cccc2c(S(=O)(=O)NC(CCCNC(=N)N)C(=O)N3CCOCC3)cccc12 (stereo not drawn) — assign IC50 category
low

Category of CCC1CCN(C(=O)C(CCCN=C(N)N)NS(=O)(=O)c2ccc3cc(OC(C)C)ccc3c2)CC1 (stereo not drawn) , please.
medium

Exercise: read the entry COc1cc2ccc(S(=O)(=O)NC(CCCN=C(N)N)C(=O)N3CCC(C)CC3)cc2cc1OC (stereo not drawn) and state which class it falls under.
low

GET /class?item= CC1CCCCN1C(=O)C(CCCN=C(N)N)NS(=O)(=O)c1cccc2c(N(C)C)cccc12 (stereo not drawn)
medium

Where would CCC1CCN(C(=O)C(CCCNC(=N)N)NS(=O)(=O)c2cccc3c(OC(C)C)cccc23)CC1 (stereo not drawn) land among the classes by reported IC50?
low

Just checking, what class would you give CN(C)c1cccc2c(S(=O)(=O)NC(CCCNC(=N)N)C(=O)N3CCCC3)cccc12 (stereo not drawn) here?
medium

Hey, which category is CCC1CCN(C(=O)C(CCCN=C(N)N)NS(=O)(=O)c2ccc3ccc(=O)oc3c2)CC1 (stereo not drawn) in, do you know?
high

Place this molecule in its band: N=C(N)NCCCC(NS(=O)(=O)c1ccc2c(c1)CCCC2)C(=O)N1CCCC1 (stereo not drawn)
high
